Listing: displacement of selected molecules
Target: Bcl-2-like protein 10 (Homo sapiens) (UniProt Q9HD36)
Sequence (Q9HD36 whole entry, looked up): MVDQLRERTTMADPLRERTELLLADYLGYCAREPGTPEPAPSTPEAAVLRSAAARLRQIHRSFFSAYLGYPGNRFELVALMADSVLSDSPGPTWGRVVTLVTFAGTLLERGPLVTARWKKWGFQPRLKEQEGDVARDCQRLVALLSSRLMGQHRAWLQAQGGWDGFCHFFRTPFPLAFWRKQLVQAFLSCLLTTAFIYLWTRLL
Test: TR3 peptide-Bcl-B binding displacers, biochemical primary FP assay, phenotype converters (AID 1240);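 further: 0% = Bcl-B with tracer peptide and DMSO and 100% = tracer peptide lacking Bcl-B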
Details: GST-Bcl-B / FITC-TR3 peptide fluorescence polarization; stronger effect = higher value; compound at 3.75 mg/L
Out of some 50,000 compounds screened, about 800 (1.6%) showed an effect of 50% or more. This is one part of a sample in which strong results are shown more often than they occur.
Number in %, nothing else.

{"molecule": "CC(=O)NC1=NC(=O)/C(=C\\c2cccs2)S1", "units.text": "%", "displacement": 109}
{"molecule": "CCc1ccccc1OCCCNC(C)(C)C", "units.text": "%", "displacement": 1.5}
{"molecule": "N#C/C(=C(/O)C(c1ccccc1)c1ccccc1)c1nc2ccccc2s1", "units.text": "%", "displacement": -3.6}
{"molecule": "Cc1cc(/C=C2/SC(=S)NC2=O)c(C)n1-c1ccc(F)cc1", "units.text": "%", "displacement": -6.4}
{"molecule": "COc1ccc(-c2nc3ccccc3o2)cc1NC(=O)c1ccc(Br)o1", "units.text": "%", "displacement": 63}
{"molecule": "COc1ccccc1C(=O)Nc1ccc2oc(-c3cccc(C)c3)nc2c1", "units.text": "%", "displacement": 1.6}
{"molecule": "CCOC(=O)c1c(-c2ccc(OC)cc2)csc1NC(=O)c1cccc([N+](=O)[O-])c1", "units.text": "%", "displacement": 12.6}
{"molecule": "O=c1n(Cc2ccccc2Cl)c2cc(N3CCOCC3)c([N+](=O)[O-])cc2n1Cc1ccccc1Cl", "units.text": "%", "displacement": -9.7}
{"molecule": "COc1ccc(Br)cc1C(=O)Nc1ccc(-c2nc3ncccc3o2)cc1", "units.text": "%", "displacement": 5.4}
{"molecule": "Cc1nnc(C)n1/N=C/c1ccc(O)c(O)c1", "units.text": "%", "displacement": 15.9}

Specify reported displacement for the molecule shown: `COc1cc2c(NCc3ccco3)cc(O)c(CC(=O)Nc3ccc(Cl)cc3)c2cc1OC`
13

Specify reported displacement for the molecule shown: O=C(O)C(Cc1ccccc1)N1C(=O)/C(=C/c2ccc(Br)cc2)SC1=S (centres undefined)
11.6

Specify reported displacement for the molecule shown: C=CCN1C(=O)C(Cc2ccccc2)S/C1=N/N=C/c1ccccc1 (centres undefined)
3

Specify reported displacement for the molecule shown: Cc1cc(C)cc(N=CC2=C(O)CC(c3ccccc3)CC2=O)c1 (centres undefined)
84.1

Specify reported displacement for the molecule shown: `O=C(Nc1ccc(-c2nc3ccccc3s2)c(O)c1)c1ccc2c(c1)OCCO2`
-3.8

Specify reported displacement for the molecule shown: `CC(=O)Nc1ccc(-c2nc3ccc(C)cc3s2)cc1`
-3.9

Specify reported displacement for the molecule shown: CC(C)OP(=O)(OC(C)C)C(Nc1ccc(Br)cc1)c1ccc(O)cc1 (centres undefined)
-13.8

Specify reported displacement for the molecule shown: `O=C(COc1ccc([N+](=O)[O-])cc1)Nc1ccccn1`
-10.4

Specify reported displacement for the molecule shown: CC1CN(CC(O)COc2ccc3ccccc3c2)CC(C)O1 (centres undefined)
0.2

Specify reported displacement for the molecule shown: `Cc1cc(/C=C2/NC(=S)NC2=O)c(C)n1-c1cccc(Cl)c1`
-12.9

Specify reported displacement for the molecule shown: `CCOc1ccc(C(=O)Nc2ccc(-c3nc4ccc(C)cc4s3)cc2)cc1`
13.3

Specify reported displacement for the molecule shown: `CN(C)c1ccc(-c2nc3cc(NC(=O)c4cccc(Br)c4)ccc3o2)cc1`
62.5

Specify reported displacement for the molecule shown: `CCOC(=O)c1c(NC(=O)COc2ccccc2C)sc(C(=O)Nc2ccccc2F)c1C`
-0.6

Specify reported displacement for the molecule shown: `COc1ccccc1-n1cnc2cc(NC(C)=O)ccc21`
14.7

Specify reported displacement for the molecule shown: `Cc1cc(C)nc(NS(=O)(=O)c2ccc(N/C=C\C(=O)c3ccc4ccccc4c3)cc2)n1`
14.7

Specify reported displacement for the molecule shown: `COc1ccc(Br)cc1C(=O)Nc1ccc(-c2nc3ccccc3o2)cc1`
134

Specify reported displacement for the molecule shown: O=C(NC1CCS(=O)(=O)C1)/C(=C\c1ccc(Br)cc1)NC(=O)c1ccccc1 (centres undefined)
1.9

Specify reported displacement for the molecule shown: `O=C(Nc1ccc(Cl)c(Cl)c1)c1ccc([N+](=O)[O-])o1`
-8

Specify reported displacement for the molecule shown: `Cc1cccc(C(=O)Nc2ccc3oc(-c4ccc(N(C)C)cc4)nc3c2)c1`
35.7

* * *

Biological target: Bcl-2-like protein 10 (Homo sapiens)
Assay: TR3 peptide-Bcl-B binding displacers, biochemical primary FP assay, phenotype converters (AID 1240);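 further: 0% = Bcl-B with tracer peptide and DMSO and 100% = tracer peptide lacking Bcl-B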
Conditions: GST-Bcl-B / FITC-TR3 peptide fluorescence polarization; stronger effect = higher value; compound at 3.75 mg/L
Out of some 50,000 compounds screened, about 800 (1.6%) showed an effect of 50% or more. What follows is part of a selection rich in strong results, with near analogues and random picks from the rest.
endpoint: displacement

{"molecule": "Cc1cc(Nc2ccccc2)nn1C(=O)c1ccc(Cl)cc1", "displacement": "-10.9%"}
{"molecule": "Cc1cc(/C=C2\\C(=O)NC(=S)N(c3ccc(Br)cc3)C2=O)c(C)n1C", "displacement": "-2.4%"}
{"molecule": "O/N=C/c1cn(-c2ccccc2)nc1-c1ccc(Cl)cc1", "displacement": "-3.8%"}
{"molecule": "O=[N+]([O-])c1ccc(-n2ncnc2-c2ccc(F)cc2)cc1", "displacement": "10.5%"}
{"molecule": "COc1cc(OC)c(OC)cc1CNc1cccc(C)c1", "displacement": "4.3%"}
{"molecule": "Cc1ccc(OCCCN2CCN(C)CC2)c(C(C)(C)C)c1", "displacement": "-8%"}
{"molecule": "CC1=C(C(=O)OCCc2ccccc2)C(c2ccccc2OCc2ccccc2)C2=C(CCCC2=O)N1 (centres undefined)", "displacement": "-6%"}
{"molecule": "CCc1ccccc1N1C(=O)CC(Sc2nc(C)cc(C)n2)C1=O (centres undefined)", "displacement": "10.8%"}

Specify reported displacement for the molecule shown: `COC(=O)c1ccc(C(=O)OC)c(NC(=O)COc2cccc(Cl)c2)c1`
1.2%

Specify reported displacement for the molecule shown: `COCCNC(=O)c1nn2c(C(F)(F)F)cc(-c3ccc(OC)cc3)nc2c1Cl`
-2.4%

Specify reported displacement for the molecule shown: `O=c1nc(/C=C/c2cccc3ccccc23)cc(C(F)(F)F)[nH]1`
49.7%

Specify reported displacement for the molecule shown: `COC(=O)c1ccc(C(=O)OC)c(NC(=O)CC(c2ccccc2)c2ccccc2)c1`
63.5%

Specify reported displacement for the molecule shown: `COc1ccc(C2=C/C(=C/c3ccc(OC)c(OC)c3)C(=O)O2)cc1`
154%

* * *

Listing: displacement of selected molecules
Molecular target: Bcl-2-like protein 10 (Homo sapiens)
Assay: TR3 peptide-Bcl-B binding displacers, biochemical primary FP assay, phenotype converters (AID 1240);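 further: 0% = Bcl-B with tracer peptide and DMSO and 100% = tracer peptide lacking Bcl-B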
Conditions: GST-Bcl-B / FITC-TR3 peptide fluorescence polarization; stronger effect = higher value; compound at 3.75 mg/L
The campaign covered roughly 50,000 compounds. About 800 (1.6%) showed an effect of 50% or more. The list comes from a sample in which strong results are over-represented; it also holds close analogues and randomly drawn compounds.
Number in %, nothing else.

{"molecule": "COc1cc(C=C2C(=O)N(C)C(=O)N(C)C2=O)ccc1OC(C)c1ccccc1 (stereo not given)", "displacement, %": 120}
{"molecule": "COc1ccc(OC)c(/C=C/C(=O)Oc2cc(C)cc(C)c2)c1", "displacement, %": 11.8}
{"molecule": "NC1=NC(=O)/C(=C\\c2ccc(-c3ccc([N+](=O)[O-])cc3)o2)S1", "displacement, %": 3.2}
{"molecule": "COc1ccc(C(=O)N2CCN(C3C4CC5CC(C4)CC3C5)CC2)cc1OC (stereo not given)", "displacement, %": -6.5}
{"molecule": "O=C1C(C=NCc2ccc(Cl)c(Cl)c2)=C(O)c2ccccc21", "displacement, %": 2.5}

Provide measured displacement on Bcl-2-like protein 10 (Homo sapiens) for `COc1ccc(NC(=O)CSCCc2ccccn2)c([N+](=O)[O-])c1` please.
10.5

Provide measured displacement on Bcl-2-like protein 10 (Homo sapiens) for `CCn1c2ccccc2c2cc(/C=N/Nc3ccc([N+](=O)[O-])cc3)ccc21` please.
-7.5

Provide measured displacement on Bcl-2-like protein 10 (Homo sapiens) for `CCc1cc2c(C)cc(=O)oc2cc1OC(C)=O` please.
10.1

Provide measured displacement on Bcl-2-like protein 10 (Homo sapiens) for `Cc1c(Cc2ccccc2)sc(NC(=O)c2ccc(-c3ccccc3)cc2)c1C(N)=O` please.
-1.3

Provide measured displacement on Bcl-2-like protein 10 (Homo sapiens) for `O=c1[nH]c(O)c(C=Nc2ccc(F)c(F)c2)c(=O)[nH]1` please.
166

Provide measured displacement on Bcl-2-like protein 10 (Homo sapiens) for `O=c1[nH]c(=S)[nH]c(O)c1C=Nc1ccc(Cl)c(Cl)c1` please.
-7

Provide measured displacement on Bcl-2-like protein 10 (Homo sapiens) for `Cc1ccc(C=C2C(=O)NC(=O)N(c3cccc(Cl)c3)C2=O)s1` please.
87.1

Provide measured displacement on Bcl-2-like protein 10 (Homo sapiens) for `CCN(CC)CCNC(=O)c1ccc(Cl)c(Cl)c1` please.
-5.2

Provide measured displacement on Bcl-2-like protein 10 (Homo sapiens) for `CC(=O)CCc1oc2ccc([N+](=O)[O-])cc2c1-c1ccc(C)o1` please.
3.5

Provide measured displacement on Bcl-2-like protein 10 (Homo sapiens) for COc1cc(C=O)ccc1OC(C)c1ccccc1 (stereo not given) please.
1.1

Provide measured displacement on Bcl-2-like protein 10 (Homo sapiens) for `COc1ccc(/C(N)=N/OC(=O)c2ccc(C)cc2)cc1` please.
-20.8

Provide measured displacement on Bcl-2-like protein 10 (Homo sapiens) for `CCC1=NN2C(=N)/C(=C/c3ccc(-c4cccc(C(=O)O)c4)o3)C(=O)N=C2S1` please.
1.4

Provide measured displacement on Bcl-2-like protein 10 (Homo sapiens) for `COc1ccc(OC)c2c1C(=O)c1ccccc1C2=O` please.
101

Provide measured displacement on Bcl-2-like protein 10 (Homo sapiens) for `CCOC(=O)c1ccc2c3c(onc13)-c1ccccc1C2=O` please.
120

Provide measured displacement on Bcl-2-like protein 10 (Homo sapiens) for CC(NC(=O)COc1ccc(/C=N/NS(=O)(=O)c2ccccc2)cc1)c1ccccc1 (stereo not given) please.
4
